# testDescription: HILIC, Waters Atlantis Premier BEH Z-HILIC, 100 × 2.1 mm, 1.7 µm, 40 °C, 0.15 mL/min, estimated dead time 1.5 min; A: water + 20 mM ammonium carbonate + 5 µM medronic acid; B: 10% water + 90% acetonitrile + 2 mM ammonium carbonate + 0.5 µM medronic acid; gradient (min/%B) 0/95 18/60 18.1/20 21.5/20 22/95 23.5/95 25.5/95
# experimentalParameters: stereoisomer not certain
LC retention time below 8 min gives NOT MET; LC retention time at or above it gives MET.

Check this compound for LC retention time at or above 8 min: O=C(O)C(CO)OP(=O)(O)O (stereo unspecified)
MET

Check the entry O=C(O)CCC(O)C(=O)O (stereo unspecified) [2-hydroxy glutaric acid] : does LC retention time equal or exceed 8 min?
MET

hey, is LC retention time for this one >= 8 min? CCC(=O)OC(CC(=O)[O-])C[N+](C)(C)C (stereo unspecified)
NOT MET

Quick check: does O=C1CC(C(=O)O)NC(=O)N1 (stereo unspecified) [dihydroorotic acid] have LC retention time greater than or equal to 8 min?
NOT MET

Kindly determine if LC retention time recorded for Nc1ncnc2c1ncn2C1OC(COP(=O)(O)O)C(O)C1O (stereo unspecified) is above or exactly 8 min.
MET
